The following molecules are listed with their measured pKi values.
# Assayed target: human mu opioid receptor (hMOR) (Homo sapiens, UniProt P35372)
# Construct: expressed in transfected cells; host or cells: CHO cells
# Sequence (P35372 whole entry): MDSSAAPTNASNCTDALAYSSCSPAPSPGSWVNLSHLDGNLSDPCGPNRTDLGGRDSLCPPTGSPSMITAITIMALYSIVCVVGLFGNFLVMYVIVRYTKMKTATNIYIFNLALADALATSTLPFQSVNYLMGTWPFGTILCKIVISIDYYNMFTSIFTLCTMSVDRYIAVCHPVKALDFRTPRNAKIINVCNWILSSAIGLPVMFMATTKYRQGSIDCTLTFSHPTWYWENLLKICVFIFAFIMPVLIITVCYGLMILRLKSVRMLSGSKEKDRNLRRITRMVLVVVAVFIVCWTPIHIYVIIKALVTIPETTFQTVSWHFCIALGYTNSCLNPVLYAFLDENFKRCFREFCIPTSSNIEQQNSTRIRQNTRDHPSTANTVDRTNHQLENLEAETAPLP
# Protocol text: Mu radioligand binding assay ([3H]diprenorphine, CHO cell membranes)
# Applied conditions: Table 19; geometric mean of 2-6 determinations unless otherwise indicated (Example 3: >=7); read-out: hMOR binding assay Ki
// pKi here means minus log10 of the molar concentration (mol/L)

Observe how each entry below is paired with its result.
                                   molecule  outcome_measure  value_measured
0  Cc1nn(C)nc1C1CCCN1Cc1ccc(Oc2ccc(C(N)=O)cc2)cc1 (single isomer, unassigned)              pKi            6.94
1  Cc1nn(C)cc1C1CC(F)CN1Cc1ccc(Oc2ccc(C(N)=O)cc2)cc1 (single isomer, unassigned) [Example 25]              pKi            6.41
2  COc1nn(C)cc1C1CC(C)CN1Cc1ccc(Oc2ccc(C(N)=O)cc2F)cc1 (single isomer, unassigned) [Example 29]              pKi            7.97

Switching to the query record.
Complete the entry with pKi for COc1nn(C)cc1C1CC(C)CN1Cc1ccc(Oc2ccc(C(N)=O)cc2F)cc1 (single isomer, unassigned) [Example 30]
8.02

----------
# Assayed target: human kappa opioid receptor (hKOR) (Homo sapiens, UniProt P41145)
# Construct: expressed in transfected cells; host or cells: CHO cells
# Sequence (P41145 whole entry): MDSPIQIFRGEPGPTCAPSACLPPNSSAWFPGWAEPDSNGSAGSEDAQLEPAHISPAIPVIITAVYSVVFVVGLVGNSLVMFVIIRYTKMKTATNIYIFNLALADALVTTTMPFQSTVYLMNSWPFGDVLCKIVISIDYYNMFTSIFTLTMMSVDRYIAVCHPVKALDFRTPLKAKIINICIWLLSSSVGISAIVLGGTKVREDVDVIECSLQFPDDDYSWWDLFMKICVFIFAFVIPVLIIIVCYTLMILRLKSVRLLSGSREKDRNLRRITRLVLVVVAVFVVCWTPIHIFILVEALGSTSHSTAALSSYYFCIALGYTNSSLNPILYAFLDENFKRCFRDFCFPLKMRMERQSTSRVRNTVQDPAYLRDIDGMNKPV
# Protocol text: Kappa radioligand binding assay ([3H]diprenorphine, CHO cell membranes)
# Applied conditions: radioligand binding, [3H]diprenorphine; read-out: hKOR Ki
Outcome measure: pKi
// pKi here means minus log10 of the molar concentration (mol/L)

Observe how each entry below is paired with its result.
In [3]: df
Out[3]:
                                   molecule                            assayed_target  outcome_measure  value_measured
0  COc1nn(C)cc1C1COCCN1Cc1ccc(Oc2ccc(C(N)=O)cc2)cc1 (single isomer, unassigned) [enantiomer of Example 23]  human kappa opioid receptor (hKOR) (Homo sapiens, UniProt P41145)              pKi            6.65
1  Cc1nn(C)nc1C1CCCN1Cc1ccc(Oc2ccc(C(N)=O)cc2)c(F)c1 (single isomer, unassigned) [enantiomer of Example 39]  human kappa opioid receptor (hKOR) (Homo sapiens, UniProt P41145)              pKi            7.13
2  COc1nn(C)cc1C1CC(F)CN1Cc1ccc(Oc2ccc(C(N)=O)cc2)cc1 (stereo not drawn) [isomer of Example 24]  human kappa opioid receptor (hKOR) (Homo sapiens, UniProt P41145)              pKi            7.44
3  COc1cc(C2CCCN2Cc2ccc(Oc3ccc(C(N)=O)cc3)cc2)n(C)n1 (single isomer, unassigned) [enantiomer of Example 46]  human kappa opioid receptor (hKOR) (Homo sapiens, UniProt P41145)              pKi            6.95

Switching to the query record.
Complete the entry with pKi for COc1nn(C)cc1C1CCCCN1Cc1ccc(Oc2ccc(C(N)=O)cc2)cc1 (single isomer, unassigned) [enantiomer of Example 21]
7.81

----------
# Assayed target: human kappa opioid receptor (hKOR) (Homo sapiens)
# Construct: expressed in transfected cells; host or cells: CHO cells
# Protocol text: Kappa radioligand binding assay ([3H]diprenorphine, CHO cell membranes)
# Applied conditions: Table 19; geometric mean of 2-6 determinations unless otherwise indicated (Example 3: >=7); read-out: hKOR binding assay Ki
Outcome measure: pKi
// pKi here means minus log10 of the molar concentration (mol/L)

Observe how each entry below is paired with its result.
>>> print(df.to_string())
                                   molecule  value_measured
0  Cc1cnn(C)c1C1CCCN1Cc1ccc(Oc2ccc(C(N)=O)cc2F)cc1 (centres unmarked)            7.77
1  Cc1nc([C@@H]2CCCN2Cc2ccc(Oc3ccc(C(N)=O)cc3)cc2)ns1            8.40
2  Cc1cc(C2CCCN2Cc2ccc(Oc3ccc(C(N)=O)cc3F)cc2)on1 (centres unmarked)            7.26

Complete the entry with pKi for Cc1c(C2CCCN2Cc2ccc(Oc3ccc(C(N)=O)cc3)cc2)cnn1C (racemic)
8.07

Complete the entry with pKi for Cc1nn(C)nc1C1CCCN1Cc1ccc(Oc2ccc(C(N)=O)cc2)c(F)c1 (single isomer, unassigned)
9.44

----------
# Assayed target: human mu opioid receptor (hMOR) (Homo sapiens, UniProt P35372)
# Construct: expressed in transfected cells; host or cells: CHO cells
# Protocol text: Mu radioligand binding assay ([3H]diprenorphine, CHO cell membranes)
# Applied conditions: Table 20; radioligand binding; read-out: hMOR binding assay Ki
In plain terms, low Ki, meaning strictly below 50 nM, gives True, and everything else gives False.

>>> df
                                   compound                            assayed_target  assigned_label
0  Cc1nn(C)nc1C1CCCN1Cc1ccc(Oc2ccc(C(N)=O)cc2)cc1 (single isomer, unassigned)  human mu opioid receptor (hMOR) (Homo sapiens, UniProt P35372)           False
1  Cc1cc(C2CCCN2Cc2ccc(Oc3ccc(C(N)=O)cc3F)cc2)on1 (centres unmarked)  human mu opioid receptor (hMOR) (Homo sapiens, UniProt P35372)           False
2  NC(=O)c1ccc(Oc2ccc(CN3CCC(c4ccccc4)C3)cc2)nc1 (centres unmarked) [Comparator A, reference compound]  human mu opioid receptor (hMOR) (Homo sapiens, UniProt P35372)            True

Say whether its Ki is strictly beneath 50 nM. Entry: NC(=O)c1ccc(Oc2ccc(CN3CCCC3c3cccnc3)cc2)c(Cl)c1 (centres unmarked)
True

Say whether its Ki is strictly beneath 50 nM. Entry: Cc1cc(C)cc([C@@H]2CCCN2Cc2ccc(Oc3ccc(C(N)=O)cc3F)cc2)c1 [Comparator E, reference compound]
True

Say whether its Ki is strictly beneath 50 nM. Entry: Cc1c(C2CCCN2Cc2ccc(Oc3ccc(C(N)=O)cc3F)cc2)cnn1C (single isomer, unassigned)
True

----------
# collection of IC50 values tested on UniProt P33534
# Sequence (P33534 whole entry): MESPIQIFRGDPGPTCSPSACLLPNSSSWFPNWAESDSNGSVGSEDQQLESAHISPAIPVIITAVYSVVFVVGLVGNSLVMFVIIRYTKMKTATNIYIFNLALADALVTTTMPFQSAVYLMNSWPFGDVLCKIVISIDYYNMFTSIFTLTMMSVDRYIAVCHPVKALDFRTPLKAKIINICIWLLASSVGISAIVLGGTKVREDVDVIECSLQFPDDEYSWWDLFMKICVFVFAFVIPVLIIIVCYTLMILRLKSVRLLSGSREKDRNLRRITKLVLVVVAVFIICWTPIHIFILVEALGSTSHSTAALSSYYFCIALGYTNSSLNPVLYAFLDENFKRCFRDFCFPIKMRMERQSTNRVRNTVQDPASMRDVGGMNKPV
Kindly provide the numeric value in nM only, without the unit symbol.

Observe how each entry below is paired with its result.
>>> df
                                   compound  unit_of_measurement  value_measured
0  Cc1nn(C)cc1[C@@H]1CCCN1Cc1ccc(Oc2ccc(C(N)=O)cc2)cc1 [Example 11]                   nM             2.5
1  Cc1cc(C)cc([C@@H]2CCCN2Cc2ccc(Oc3ccc(C(N)=O)cc3F)cc2)c1 [Comparator E, reference compound]                   nM           0.015

Switching to the query record.
Report IC50 from UniProt P33534 testing of COc1nn(C)cc1C1CCCN1Cc1ccc(Oc2ccc(C(N)=O)cc2F)cc1 (single isomer, unassigned; (-)) [Example 8]
0.69

----------
# Assayed target: human kappa opioid receptor (hKOR) (Homo sapiens, UniProt P41145)
# Construct: expressed in transfected cells; host or cells: CHO cells
# Protocol text: Kappa radioligand binding assay ([3H]diprenorphine, CHO cell membranes)
# Applied conditions: Table 19; geometric mean of 2-6 determinations unless otherwise indicated (Example 3: >=7); read-out: hKOR binding assay Ki
The following molecules are listed with their measured Ki values.
Kindly provide the numeric value in nM only, without the unit symbol.

                                   molecule  unit_of_measurement  value_measured
0  Cc1nn(C)cc1[C@@H]1CCCN1Cc1ccc(Oc2ccc(C(N)=O)cc2)cc1 [Example 11]                   nM            1.21
1  COc1nn(C)cc1C1CCCCN1Cc1ccc(Oc2ccc(C(N)=O)cc2)cc1 (single isomer, unassigned) [Example 21]                   nM           0.567

Complete the entry with Ki for Cn1ccc([C@@H]2CCCN2Cc2ccc(Oc3ccc(C(N)=O)c(O)c3)cc2)n1 [Example 34]
0.508

----------
# Assayed target: human kappa opioid receptor (hKOR) (Homo sapiens)
# Construct: expressed in transfected cells; host or cells: CHO cells
# Protocol text: Kappa radioligand binding assay ([3H]diprenorphine, CHO cell membranes)
# Applied conditions: selectivity ratio calculated by dividing the hMOR Ki by the hKOR Ki
Outcome measure: Selectivity hMOR/hKOR

Observe how each entry below is paired with its result.
>>> print(df.to_string())
                                   molecule                            assayed_target        outcome_measure  value_measured
0  NC(=O)c1ccc(Oc2ccc(CN3CCCC3c3cccnc3)cc2)c(Cl)c1 (stereo not drawn)  human kappa opioid receptor (hKOR) (Homo sapiens)  Selectivity hMOR/hKOR              17
1  Cc1nn(C)nc1C1CCCN1Cc1ccc(Oc2ccc(C(N)=O)cc2)cc1 (single isomer, unassigned)  human kappa opioid receptor (hKOR) (Homo sapiens)  Selectivity hMOR/hKOR             168

Switching to the query record.
Report Selectivity hMOR/hKOR from human kappa opioid receptor (hKOR) (Homo sapiens) testing of NC(=O)c1ccc(Oc2ccc(CN3CCC(c4ccccc4)C3)cc2)nc1 (stereo not drawn) [Comparator A, reference compound]
0.03
